Target: T1, TCE-33 (anti-CD3 scFv F240A; anti-TROP2 wt)
T1 construct: scFv on the Fab heavy chain; also called TCE-33 (F240A)
Test: competition ELISA, TCE on captured CD3
Where no end group is shown, it is not given here.
measured endpoint: IC50 (µM)
Numbers only, in µM.

Example results:
{"binder": "VYCGPEFDESVGCM (cysteine pairing not given here; also: biotinylated, site not given here, mask peptide for the CD3 scFv) [Peptide-67]", "scale unit": "µM", "IC50": 1.25}
{"binder": "DWCWYSPDNDGLCD (cysteine pairing not given here; also: biotinylated, site not given here, mask peptide for the CD3 scFv) [Peptide-68]", "scale unit": "µM", "IC50": 7.35}
{"binder": "GSACLGPEWEVCPY (cysteine pairing not given here; also: biotinylated, site not given here, mask peptide for the CD3 scFv) [Peptide-75]", "scale unit": "µM", "IC50": 7.46}
{"binder": "SECLVDLQSDPCYW (cysteine pairing not given here; also: biotinylated, site not given here, mask peptide for the CD3 scFv) [Peptide-69]", "scale unit": "µM", "IC50": 0.81}

What IC50 value was documented for this binder, ASQCLGPEWEVCPY (cysteine pairing not given here; also: biotinylated, site not given here, mask peptide for the CD3 scFv) [Peptide-74] ?
3.08
